Every entry's value here was drawn from patent US9084828B2.

In this section, each of the molecules is paired with its reported ABL AVG % Activity at Specific Concentration.
Target: ABL (Homo sapiens)
Sequence (P00519 whole entry): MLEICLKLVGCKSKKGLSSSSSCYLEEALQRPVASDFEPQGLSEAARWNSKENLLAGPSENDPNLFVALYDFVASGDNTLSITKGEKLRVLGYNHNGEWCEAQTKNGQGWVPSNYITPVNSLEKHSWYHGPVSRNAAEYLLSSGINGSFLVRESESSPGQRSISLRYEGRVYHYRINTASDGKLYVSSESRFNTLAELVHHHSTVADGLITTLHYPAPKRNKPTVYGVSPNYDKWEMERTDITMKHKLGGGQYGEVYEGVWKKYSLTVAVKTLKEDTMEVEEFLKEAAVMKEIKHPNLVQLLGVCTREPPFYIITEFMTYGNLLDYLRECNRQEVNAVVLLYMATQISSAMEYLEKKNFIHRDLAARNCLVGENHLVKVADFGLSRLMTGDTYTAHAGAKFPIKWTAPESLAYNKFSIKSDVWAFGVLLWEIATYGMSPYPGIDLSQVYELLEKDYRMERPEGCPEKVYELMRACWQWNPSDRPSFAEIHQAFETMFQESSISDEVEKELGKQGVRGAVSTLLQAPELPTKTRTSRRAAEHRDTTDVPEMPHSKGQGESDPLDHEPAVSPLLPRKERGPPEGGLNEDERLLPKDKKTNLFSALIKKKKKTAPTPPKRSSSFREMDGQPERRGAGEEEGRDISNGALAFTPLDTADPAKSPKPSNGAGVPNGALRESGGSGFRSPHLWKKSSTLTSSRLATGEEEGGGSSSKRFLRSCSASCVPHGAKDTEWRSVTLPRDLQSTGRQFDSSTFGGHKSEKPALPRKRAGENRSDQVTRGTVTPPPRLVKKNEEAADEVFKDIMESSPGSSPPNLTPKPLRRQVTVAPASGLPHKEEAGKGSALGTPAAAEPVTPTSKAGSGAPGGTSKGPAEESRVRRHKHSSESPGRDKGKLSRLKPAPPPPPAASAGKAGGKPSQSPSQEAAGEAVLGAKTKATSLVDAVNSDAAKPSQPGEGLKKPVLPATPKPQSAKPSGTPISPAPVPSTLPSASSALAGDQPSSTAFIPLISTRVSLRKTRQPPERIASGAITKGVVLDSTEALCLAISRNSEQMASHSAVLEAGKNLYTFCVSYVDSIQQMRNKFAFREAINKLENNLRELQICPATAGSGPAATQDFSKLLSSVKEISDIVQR
Assay: ABL tyrosine kinase inhibition, off-chip incubation mobility-shift kinase assay (Caliper LABCHIP 3000)
Details: at 3.0E−10 (concentration unit not given); average of replicate wells
PROPERTY NAME: ABL AVG % Activity at Specific Concentration (%)

INSERT INTO measurements (molecule, numeric_value) VALUES
  ('COCCOCCOCCOCCOCCOCCOCCOCCOCCNC(=O)OCCN1CCN(c2cc(Nc3ncc(C(=O)Nc4c(C)cccc4Cl)s3)nc(C)n2)CC1', 47),
  ('COCCOCCOCCOCC(=O)N[C@H](C(=O)OCCN1CCN(c2cc(Nc3ncc(C(=O)Nc4c(C)cccc4Cl)s3)nc(C)n2)CC1)C(C)C', 54),
  ('COCCOCCOCCNC(=O)OCCN1CCN(c2cc(Nc3ncc(C(=O)Nc4c(C)cccc4Cl)s3)nc(C)n2)CC1', 47),
  ('COCCOCCOCCOCCOCCNC(=O)OCCN1CCN(c2cc(Nc3ncc(C(=O)Nc4c(C)cccc4Cl)s3)nc(C)n2)CC1', 45),
  ('COCCOCCOCCOCC(=O)NC(CC(C)C)C(=O)OCCN1CCN(c2cc(Nc3ncc(C(=O)Nc4c(C)cccc4Cl)s3)nc(C)n2)CC1 (stereo not shown)', 62),
  ('COCCOCCOCCOCCOCCOCCOCCNC(=O)OCCN1CCN(c2cc(Nc3ncc(C(=O)Nc4c(C)cccc4Cl)s3)nc(C)n2)CC1', 48),
  ('COCCOCCOCCOCC(=O)OCCN1CCN(c2cc(Nc3ncc(C(=O)Nc4c(C)cccc4Cl)s3)nc(C)n2)CC1', 44);
